# Test system: CCRF-CEM leukemia
# protocolDetails: NCI-60 one-dose screen, 48 h (100 = growth as untreated, 0 = no growth, -100 = all killed)
# conditionSummary: 10 µM
Compounds without any hit were thinned out: in the full panel of roughly 83,000, 20% have a hit.
Below, each of the compounds is paired with its reported growth value.
Give your result in % as a bare value.

Report growth for `CCCCCCNc1nc(N2CCOCC2)c2[nH]c(NCCCCCC)nc2n1` -32.3

Report growth for `O=C(Nc1ccc(-n2cc(-c3ccncc3)c(-c3ccc(Cl)c(O)c3)n2)cc1)c1cc(C(F)(F)F)cc(C(F)(F)F)c1` 72.9

Report growth for `COc1ccc2nc3cc(Cl)ccc3c(NCCCNC(C)=O)c2c1` 39

New cases:
Report growth for `CC(=O)NNC(=O)c1sc(NC(C)=O)nc1C` 88.1

Report growth for CCC(C)C1NC(=O)C(CCCCN)NC(=O)C(CCCCN)NC(=O)C(CC(C)C)NC(=O)C(CCCCN)NC(=O)C(C(C)CC)NC(=O)C(C(C)C)NC(=O)C(C(C)CC)NC(=O)C(CCCCN)NC(=O)C(CCCCN)NC(=O)C(C)NC(=O)C(CCCCN)NC(=O)C(CC(C)C)NC1=O (configuration not stated) 22

Report growth for CCC(C)C1NC(=O)C(CC(C)C)NC(=O)C(C)NC(=O)C(C(C)C)NC(=O)C(CCCCN)NC(=O)C(CC(C)C)NC(=O)C(C(C)C)NC(=O)[C@H](C)NC(=O)C(C(C)CC)NC(=O)C(CCCN=C(N)N)NC(=O)C(CCCCN)NC(=O)C(CCCN=C(N)N)NC(=O)C(CCCCN)NC(=O)C([C@H](C)CC)NC(=O)C(CCCCN)NC1=O (some centres not stated) 8.98

Report growth for `O=C(Nn1cnc2ccccc21)N1CCCC1` 127

---

# System: HCT-15 colon
# protocolDetails: NCI-60 one-dose screen, 48 h (100 = growth as untreated, 0 = no growth, -100 = all killed)
# conditionSummary: 10 µM unless noted
This is part of a sample that, as a whole, favours compounds with a hit. Of some 83,000 tested, about 20% had one in any assay.
measuredQuantity: growth (%)
Give your result in % as a bare value.

Report growth for `O=C(CN1CCN(c2cccc(Cl)c2)CC1)N1CCN(c2nnc(-c3ccc(Cl)cc3)c(-c3ccc(Cl)cc3)n2)CC1` 52.9

Report growth for `COC(=O)[C@@H]1[C@H](O)[C@H](C)[C@H](O)[C@H](C)/C=C\C=C(C)C(=O)Nc2c(C)c(OC(C)=O)c3c(c2O)C(=O)C(C)=C2OCOC(=C23)C(C)=C[C@@](C)(O)[C@H](O)[C@@H](C)[C@H]1OC(C)=O` 118

New cases:
Report growth for N#Cc1ccc(NC2c3ccccc3CC2O)cc1 (stereo not given) 101

Report growth for Cc1ccc2c(O)c(O)cc(NC(C)CCCN)c2n1 (stereo not given) 116

Report growth for `NNC(=O)CNc1ccc2ccccc2c1` 110

---

# System: NCI/ADR-RES ovarian
# protocolDetails: NCI-60 one-dose screen, 48 h (100 = growth as untreated, 0 = no growth, -100 = all killed)
# conditionSummary: 10 µM unless noted
This is part of a sample that, as a whole, favours compounds with a hit. Of some 83,000 tested, about 20% had one in any assay. Activity calls are given as the source filed them. How the source made its calls: active means growth percent below 10; inactive means the rest.
Below, each of the compounds is paired with its reported growth value.

Report growth for `CCOc1ccc(N(C)c2ccc(/C=C/C3=[N+](C)c4ccccc4C3(C)C)cc2)cc1` 72.9% (inactive)

New cases:
Report growth for `CSC1=Nc2c(c(C)c(-c3ccccc3)n2CCCCl)C2=NC(=O)CN12` 58% (inactive)

Report growth for `Nc1ccc(N=Nc2ccccc2)c2cc(S(=O)(=O)O)ccc12` 101% (inactive)

Report growth for `C[C@H]1C[C@@H](n2cnc3c(N)nccc32)[C@H](O)[C@@H]1O` 128% (inactive)

Report growth for `COC(=O)/C(Br)=C/c1c[nH]c2ccc(Br)cc12` 80.4% (inactive)
